Quick list: Potency per entry.
# ASSAY_SUMMARY: BET inhibitor-based combinations targeting novel dependencies in MECOM-rearranged (r) AML: SET-2 cell line (AID 2202231); further: potency means the concentration at half of the fitted maximal effect; nearly all actives have a fitted effect of over 35% in size
# CONDITION_NOTES: SET-2 AML cells viability, CellTiter-Glo luminescence, 48 h
Inconclusive results are not listed. Active and inactive are the calls of the source. The call rests on the fitted dose curve; in most records, active means well fitted inhibition curve with a large enough effect; inconclusive means small, poorly fitted or top-dose-only effect; inactive means no such curve, though single readings can be large or run the other way.

Previously resolved entries follow.
{"MOLECULE": "c1cncc(CN2CCC(n3ncc4c(N5CCOCC5)nc(-c5ccc6[nH]ccc6c5)nc43)CC2)c1", "Potency": "3.72 µM (active)"}
{"MOLECULE": "CNC1CCC(N(Cc2cccc(-c3ccncc3)c2)C(=O)c2sc3c(F)ccc(F)c3c2Cl)CC1 (stereo not given)", "Potency": "26.3 µM (active)"}
{"MOLECULE": "C=CC(=O)Nc1cccc(Oc2nc(Nc3ccc(N4CCN(C)CC4)cc3)ncc2Cl)c1", "Potency": "14.8 µM (active)"}
{"MOLECULE": "N#CNC(=NCCCCCCOc1ccc(Cl)cc1)Nc1ccncc1", "Potency": "13.2 µM (active)"}

Return value of Potency for input "Nc1ccc(-c2ccc3ncc4ccc(=O)n(-c5cccc(C(F)(F)F)c5)c4c3c2)cn1" , no commentary.
0.105 µM (active)

Look up Potency of "Cc1nc([C@](C)(O)CO)sc1-c1cnc(N)c(O[C@H](C)c2cc(F)ccc2-n2nccn2)c1" and report it.
10.5 µM (active)

Using the record for "Cc1cc(Nc2cc(N3CCN(C)CC3)nc(/C=C/c3ccccc3)n2)n[nH]1" , state its measured Potency.
13.2 µM (active)

Return the recorded Potency value; entry: "O=C(/C=C\n1cnc(-c2cc(C(F)(F)F)cc(C(F)(F)F)c2)n1)NNc1cnccn1"
0.742 µM (active)

Supply recorded Potency for "Oc1ccc(C2=Cc3ccc(O)cc3OC2)cc1" here.
2.09 µM (active)

###

# ASSAY_SUMMARY: qHTS for Inhibitors of the Aldehyde Dehydrogenase Family (ALDH1A2, ALDH1A3, ALDH2, ALDH3A1) (AID 2061307); further: nearly all actives have a fitted effect of over 50% in size
# CONDITION_NOTES: ALDH inhibition qHTS; series mostly up to 50.3 µM
Results filed as inconclusive are left out. Active and inactive are the calls of the source. The call rests on the fitted dose curve; in most records, active means well fitted inhibition curve with a large enough effect; inconclusive means small, poorly fitted or top-dose-only effect; inactive means no such curve, though single readings can be large or run the other way.
Form entry, call: pick from active, inactive

Check out these entries, answers already filled in.
{"CPD_SMILES": "CC/C=C\\[C@H](O)[C@H](O)C1=C(C)C(=O)[C@]2(O1)C(=O)N[C@@](O)(C(=O)c1ccccc1)[C@@H]2O", "CLASSIFICATION": "inactive"}
{"CPD_SMILES": "N#Cc1ccc(-c2ccc(CNc3ccc(N4CCCCC4)cc3)o2)cc1", "CLASSIFICATION": "active"}

Please share the test call associated with "CCCCNc1ccc(C(=O)OCCN(CC)CC)cc1" .
inactive

What call does the record list for "CC(=O)Nc1sc2c(c1-c1nc3ccccc3s1)CNC2" ?
active

Each compound tested received a call. Report the one for "CSC(=O)OCC1=C[C@@H]2OC(=O)C3=CO[C@@H](O[C@@H]4O[C@H](CO)[C@@H](O)[C@H](O)[C@H]4O)[C@H]1[C@@H]32" .
inactive

Recorded test outcome, item "O=C(O)c1ccccc1Nc1cccc(OCc2ccc3ccccc3n2)c1"
active

For this compound, state the assay outcome: "COc1ccc(S(=O)(=O)N2CCN(C(=O)c3ccc([N+](=O)[O-])o3)CC2)cc1"
inactive

###

# ASSAY_SUMMARY: BET inhibitor-based combinations targeting novel dependencies in MECOM-rearranged (r) AML: MV-4-11 cell line (AID 2202233); further: nearly all actives have a fitted effect of over 45% in size
# CONDITION_NOTES: MV-4-11 AML viability, CellTiter-Glo luminescence, 48 h; series mostly up to 46 µM
# Experimental: Ecotropic viral insertion site 1 (EVI1) is located on chromosome 3q26.2 as part of the MECOM (MDS and EVI1 complex) locus. […] A collection of 2480 mechanistically annotated dugs (MIPE v5.0) was used to screen four 3q26.2 rearranged AML cell lines and three non-3q26.2 rearranged AML cell lines. […] Cell viability was determined by luminescence based, Cell Titer Glo assay (Promega). […] Luminescence readings were taken using a Viewlux (PerkinElmer) with a 2 s exposure time per plate. […]
Records with an inconclusive call do not appear. Activity calls are given as the source filed them. Calls follow the shape of the dose curve; as a rule, active = well fitted inhibition curve with a large enough effect; inconclusive = small, poorly fitted or top-dose-only effect; inactive = no such curve, though single readings can be large or run the other way.
Lab note: assign the record to one of active, inactive

{"COMPOUND": "COC(=O)N1CC2(CC2)C[C@H](C(=O)NO)[C@H]1C(=O)N1CCN(c2ccccc2)CC1", "CLASSIFICATION": "inactive"}
{"COMPOUND": "O=C1CSC(=O)N1C(CCc1ccncc1)COc1ccc(-c2cccc([N+](=O)[O-])c2)cc1 (stereo unspecified)", "CLASSIFICATION": "active"}
{"COMPOUND": "N#Cc1cc(NC(=O)Nc2nnc(-c3ccncc3)s2)ccc1-c1cn[nH]c1", "CLASSIFICATION": "inactive"}
{"COMPOUND": "Nc1ccc(S(N)(=O)=O)cc1", "CLASSIFICATION": "inactive"}
{"COMPOUND": "CC(C)C[C@@H](C(=O)N[C@H](C(=O)OC1CCCC1)c1ccccc1)[C@H](O)C(=O)NO", "CLASSIFICATION": "active"}

Could you check what this test reported for "Cc1ccc(C(=O)Nc2cccc(C(F)(F)F)c2)cc1-c1ccc2nc(NCCN3CCOCC3)ncc2c1" ?
active

###

# TESTED_ON: Aldehyde dehydrogenase, mitochondrial (Homo sapiens) (UniProt P05091)
# ASSAY_SUMMARY: qHTS for Inhibitors of the Aldehyde Dehydrogenase Family (ALDH2) Primary screen (AID 2061308); further: nearly all actives have a fitted effect of over 55% in size
# CONDITION_NOTES: ALDH2 enzyme inhibition qHTS, 1536-well; series mostly up to 56 µM
Records with an inconclusive call do not appear. The source made the active and inactive calls. Calls follow the shape of the dose curve; as a rule, active = well fitted inhibition curve with a large enough effect; inconclusive = small, poorly fitted or top-dose-only effect; inactive = flat fitted curve, though single readings scatter.

{"COMPOUND": "CC(C)(C)NC(=O)[C@H]1CC[C@H]2[C@@H]3CC[C@H]4NC(=O)CC[C@]4(C)[C@H]3CC[C@]12C", "activity change, negative = inhibition": "inactive"}
{"COMPOUND": "COc1nccc(-c2c(-c3ccc(F)cc3)ncn2C2CCC(O)CC2)n1 (stereo not drawn)", "activity change, negative = inhibition": "inactive"}
{"COMPOUND": "CCN1CCN(c2ccc(Nc3ccc(-c4ccc(C(N)=O)cc4)n4ncnc34)cc2)CC1", "activity change, negative = inhibition": "inactive"}

###

# ASSAY_SUMMARY: BET inhibitor-based combinations targeting novel dependencies in MECOM-rearranged (r) AML: MV-4-11 cell line (AID 2202233); further: nearly all actives have a fitted effect of over 45% in size
# CONDITION_NOTES: MV-4-11 AML viability, CellTiter-Glo luminescence, 48 h; series mostly up to 46 µM
# Description: Ecotropic viral insertion site 1 (EVI1) is located on chromosome 3q26.2 as part of the MECOM (MDS and EVI1 complex) locus. […] A collection of 2480 mechanistically annotated dugs (MIPE v5.0) was used to screen four 3q26.2 rearranged AML cell lines and three non-3q26.2 rearranged AML cell lines. […] Cell viability was determined by luminescence based, Cell Titer Glo assay (Promega). […] Luminescence readings were taken using a Viewlux (PerkinElmer) with a 2 s exposure time per plate. […]
Results filed as inconclusive are left out. Calls of active or inactive are those of the source. Calls follow the shape of the dose curve; as a rule, active = well fitted inhibition curve with a large enough effect; inconclusive = small, poorly fitted or top-dose-only effect; inactive = no such curve, though single readings can be large or run the other way.
Respond only with the outcome that fits, drawn from True (active), False (inactive)

For orientation, consider the following solved cases.
{"CPD_SMILES": "NC(=O)NO", "CLASSIFICATION": "False"}
{"CPD_SMILES": "NC(=O)c1cnc(N[C@@H]2CCCC[C@@H]2N)nc1Nc1cccc(-n2nccn2)c1", "CLASSIFICATION": "True"}
{"CPD_SMILES": "CNc1nc(C)nc(N[C@H]2CCC[C@@H](C(=O)NCc3ccc(C#N)cc3C(F)(F)F)C2)n1", "CLASSIFICATION": "True"}
{"CPD_SMILES": "Oc1ccc(Nc2nc(-c3ccc(Cl)cc3)cs2)cc1", "CLASSIFICATION": "True"}

Would you mind telling me which call this test gave "Cc1cc(Nc2cc(NC(=O)c3c(Cl)cccc3Cl)ccn2)nc(N)n1" ?
True

###

# TESTED_ON: Aldehyde dehydrogenase, mitochondrial (Homo sapiens)
# ASSAY_SUMMARY: qHTS for Inhibitors of the Aldehyde Dehydrogenase Family (ALDH2) Primary screen (AID 2061308); further: nearly all actives have a fitted effect of over 55% in size
# CONDITION_NOTES: ALDH2 enzyme inhibition qHTS, 1536-well; series mostly up to 56 µM
Inconclusive results are not listed. The source made the active and inactive calls. The call rests on the fitted dose curve; in most records, active means well fitted inhibition curve with a large enough effect; inconclusive means small, poorly fitted or top-dose-only effect; inactive means flat fitted curve, though single readings scatter.
MEASURED_ATTRIBUTE: activity change, negative = inhibition

{"COMPOUND": "O=C(O)CC1CCC(c2ccc(-c3ccc(Nc4ccc(C(F)(F)F)nc4)cn3)cc2)CC1 (stereo not drawn)", "RESULT": "inactive"}
{"COMPOUND": "NC(=O)C1=CC2C3C=CC2C(OC3=O)O1 (stereo not drawn)", "RESULT": "inactive"}
{"COMPOUND": "COc1cc(CC2COC(c3ccc(OC4OC(CO)C(O)C(O)C4O)c(OC)c3)C2CO)ccc1O (stereo not drawn)", "RESULT": "inactive"}
